Each entry below carries its reported TGI.
Test system: HCC-2998 colon
Test: NCI tumour cell line growth inhibition, 48 h

Reference set (5 entries):
CNc1nc(N)c(N=O)c(Nc2ccc(Br)cc2)n1 ... > 100 µM
COc1ccc(/C=C\c2cc(OC)c(OC)c(OC)c2)cc1OC(=O)NCCN(C)C ... 0.487 µM
O=C1/C(=C/c2ccc(O)cc2)CSc2ccc(Cl)cc21 ... 30.1 µM
O=C1OC(c2ccco2)=N/C1=C\c1cccc([N+](=O)[O-])c1 ... > 100 µM
CCc1oc2ccccc2c1C(=O)c1cc(I)c(O)c(I)c1 ... 17.5 µM

Notebook: Clc1ccccc1/C=C/c1cscn1 , TGI read as > 100 µM

The measured TGI associated with CCN(CC)CC(=O)O[C@]1(CC)C(=O)OCc2c1cc1n(c2=O)Cc2cc3ccccc3nc2-1 reads 1.28 µM

TGI reading for Cc1cccc2c(N)c3cccc(C(=O)NCC[N+](C)(C)Cc4c([N+](=O)[O-])ncn4C)c3nc12 : > 95.7 µM

Recorded TGI (molecule COc1cc2c(c(OC)c1OC)-c1c(cc3c(c1OC)OCO3)C1OC2C(C)C1C (stereo not given) (tested in a mixture with another compound) ): > 100 µM

Noted for Cc1nc2ccccc2n1C(=O)c1c(F)c(F)c(F)c(F)c1F : its TGI reads 34.2 µM

Entry under test: CCn1c(SCC(=O)NNC(=S)Nc2ccc(C)cc2)nc2ccccc2c1=O . Its TGI was > 100 µM

Documented TGI of COC1=CC2(C=CC1=O)c1cc(OC)c(OC)cc1CCN2C(=O)c1ccccc1 (stereo not given) : > 100 µM

For CN(C)/C=N/S(=O)(=O)c1nn2c(C=O)c(-c3ccc(Cl)cc3)nc2s1 the molecule record lists TGI as 9.75 µM

For COc1ccc(-c2nnc(COc3ccc(NC(=O)Nc4ccc(Cl)c(C(F)(F)F)c4)cc3F)o2)cc1 the molecule record lists TGI as 53.1 µM

Given item N#CCc1ccc(C(C#N)/C(CCCC(=O)Nc2cccc([N+](=O)[O-])c2)=N/NC(N)=S)cc1 (stereo not given) , the value recorded as its TGI is > 100 µM

Item: C=C(C)C(=O)OC1CCC2(C)C(CCC3C2CCC2(C)C(c4ccc(=O)oc4)CC4OC432)C1 (stereo not given) | TGI: 17.8 µM

Form field TGI, entry O=c1oc2cc(O)ccc2c(O)c1C(c1ccccc1F)c1c(O)c2ccc(O)cc2oc1=O : > 100 µM

Input NC(CCC(=O)O)C(=O)N1CCN(c2nc(N3CCCC3)c3nc(Cl)c(NCc4ccccc4)nc3n2)CC1 (stereo not given) . Output TGI: 24.9 µM

Query CN(C)C(c1ccccc1)C(O)c1ccccc1 (stereo not given) yields TGI of > 100 µM

TGI measured on N.N.O=C([O-])P(=O)([O-])[O-].[Na+].[Pt+4] = > 100 µM

Recorded TGI (molecule COC(=O)C1=C(C(=O)OC)c2cc(OC)ccc2C(C(=S)N(C)C)S1 (stereo not given) ): > 100 µM

O=C(O)Cc1cc(O)c(CC(=O)O)cc1O yielded TGI of > 100 µM

The molecule identified as CCN(CC)CCCC(C)Nc1cnc(C(=O)Nc2cccc3ccc(OC)nc23)cn1 (stereo not given) registered its TGI at 3.46 µM

Entry under test: COC(=O)C(COC(C)=O)NC(=O)/C=C/c1ccc(O)c(OC(C)=O)c1 (stereo not given) . Its TGI was > 100 µM

====

Test system: TK-10 renal
Assay: NCI tumour cell line growth inhibition, 48 h; in the data active = GI50 below about 0.43 µM; inactive = the rest
// allowed return values: active, inactive

Please review the following examples before continuing.
COc1cc2c3c(n(C)c(=O)c2cc1OC)-c1cc2c(cc1/C3=C\CNCCCN)OCO2 ... inactive
Cn1c2ccccc2c2c3[nH]c(=O)[nH]c(=O)c3c3c4ccccc4n(C)c3c21 ... inactive
O=C(/C(=C/c1cccc([N+](=O)[O-])c1)c1ccccc1)c1ccccc1 ... inactive
Cc1ccc(C(=O)Nc2ccc(CN3CCN(C)CC3)c(C(F)(F)F)c2)cc1C#Cc1cnc(N)c2ccccc12 ... inactive
COc1ccc(C2SCC(=O)N2NC(=O)Nc2c(C)nc3ccccn23)cc1 (stereo not given) ... inactive

State the result this test recorded for C/C(=N\Nc1ccc(Cl)cn1)c1ccccn1 . inactive

Status in this test for Nc1nc(-c2cccc(Cl)c2)c(-c2ccc3ncccc3n2)s1 ? inactive

Status in this test for COc1cc(NS(=O)(=O)c2ccc(-c3cnc(C4CC4)o3)cc2)ccc1F ? inactive

Dear colleague, could you share the recorded outcome for O=C1/C(=C/c2ccc(O)cc2)CSc2ccc(Cl)cc21 when you have a moment? inactive

Could you check what this test reported for O=C(O)[C@@H]1CCCCN1Cc1cc2cc3c(cc2c2cc(OCc4ccccc4)ccc12)OCO3 ? inactive

Just curious, what result did CCOC(=O)c1c(C)nc2c(c1N)/C(=C/c1ccc(OC)cc1)C(=O)N2Cc1ccc(F)cc1 get here? active

Outcome logged for COc1ccc(OC)c(C(=O)c2oc3ccc(Br)cc3c2N)c1 in this assay: inactive

Write down the call the test reported for this molecule. Item: COc1ccc(/C=C\c2cc(OC)c(OC)c(OC)c2)cc1OC(=O)NCCN(C)C inactive

// return assay outcome for Cc1ccc(NC(=O)c2sc3nc(C)c(C(O)c4ccccc4)cc3c2N)cc1 (stereo not given) inactive

Record request — test call for Cc1ccc2c3c(c(=O)[nH]c2c1)C1(C(C#N)=C(N)O3)c2cc(Br)ccc2-c2ccc(Br)cc21 inactive

====

Test system: EKVX NSCLC
Assay: NCI tumour cell line growth inhibition, 48 h
The following molecules are listed with their measured TGI values.

Answered examples (2):
Cc1ccc(-c2c3nc(c(-c4ccc(C)cc4)c4ccc([nH]4)c(-c4ccc(OCC5COC(C)(C)O5)cc4)c4nc(c(-c5ccc(C)cc5)c5ccc2[nH]5)C=C4)C=C3)cc1 (stereo not drawn) ... > 31.6 µM
COC(=O)c1cc(C)c(C)c2c1NC(=O)CNC2=O ... > 100 µM

The recorded TGI for entry COc1ccc(O)c(/C(C)=N/NC(=S)N(C)C)c1 equals > 100 µM

// TGI lookup, molecule = CCCCOC(=O)NC(=O)c1cn(C2CCCCC2)c(=O)[nH]c1=O , result: > 100 µM

So, COc1cc(NS(=O)(=O)c2ccc(-c3cnc(C4CC4)o3)cc2)ccc1F ? Its TGI was 95.5 µM

What the record says about Cc1ccc(C(=O)Nc2ccc(CN3CCN(C)CC3)c(C(F)(F)F)c2)cc1C#Cc1cnc(N)c2ccccc12 : TGI is 1.28 µM

Input OC/C=C(\I)CCCOCOCc1ccccc1 . Output TGI: > 100 µM

Noted for COc1cc2c(c(OC)c1OC)-c1c(cc3c(c1OC)OCO3)C1OC2C(C)C1C (stereo not drawn) (tested in a mixture with another compound) : its TGI reads > 100 µM

TGI for CN(C)CCCN1c2ccccc2Sc2cnccc21 is > 100 µM

The molecule listed as COc1ccc(CCN2CCN(CCc3ccc(OC)cc3)CC2)cc1 has a reported TGI of > 100 µM

Looking up CC(C)(C)[Si](C)(C)OCC1OC(n2cc(I)c(N)nc2=O)C(O[Si](C)(C)C(C)(C)C)C1O[Si](C)(C)C(C)(C)C (stereo not drawn) , I see its TGI listed as 38.4 µM

Note to self: TGI recorded for Clc1ccccc1/C=C/c1cscn1 was > 100 µM

The molecule identified as C/C=C1/C(=C/c2[nH]c(/C=c3\[nH]/c(=C/C4=NC(=O)C(CC)=C4C)c(C)c3CCC(=O)O)c(CCC(=O)O)c2C)NC(=O)C1C (stereo not drawn) registered its TGI at > 150 µg/mL

The recorded TGI for entry C/C=C(/C)C(=O)O[C@H]1C[C@@H]2[C@@H](O)c3occ(C)c3C[C@]2(C)[C@@H](C)C1 equals 30.5 µM

====

Tested on: HOP-18 NSCLC
Experiment: NCI tumour cell line growth inhibition, 48 h
parameter_measured: TGI

Observe how each entry below is paired with its result.
Cc1[nH]c2ccccc2c1C1Cc2ccccc2N1C(=O)/C(Cl)=C/c1ccccc1 (stereo not drawn) ... > 100 µM
CCCCOC(=O)NC(=O)c1cn(C2CCCCC2)c(=O)[nH]c1=O ... 49.4 µM
CC(C)c1cc2c(O)c(c1)Cc1cc(C(C)C)cc(c1O)Cc1cc(C(C)C)cc(c1O)Cc1cc(C(C)C)cc(c1O)C2 ... > 100 µM

Form: compound = O=C1NC2OCC(O)C(O)C2O1 (stereo not drawn) ; TGI = > 100 µM

Entry C=C(C)C(=O)OC1CCC2(C)C(CCC3C2CCC2(C)C(c4ccc(=O)oc4)CC4OC432)C1 (stereo not drawn) ; TGI = 104 µM

The reported value for O=C(/C=C/c1c(O)ccc2ccccc12)c1ccccc1 in terms of TGI is > 100 µM

COc1ccc2c3c(coc13)C(CCC(=O)O)CC2 (stereo not drawn) yielded TGI of > 100 µM

Recorded TGI (compound COC1=CC2(C=CC1=O)c1cc(OC)c(OC)cc1CCN2C(=O)c1ccccc1 (stereo not drawn) ): > 100 µM
